# Lookup of reported GI50 keyed by entry
- Test system: TK-10 renal
- Test Name: NCI tumour cell line growth inhibition, 48 h

Completed entries (count: 3):
O=C(CN1CCOCC1)Nc1ccc(Cn2nnc3c2C(=O)c2nnn(Cc4ccc(NC(=O)CN5CCOCC5)cc4)c2C3=O)cc1 | 3.25 µM
COc1ccc2c(c1)c(-c1nc(-c3cn(C)c4ncccc34)cs1)cn2CCCN1CCCCC1 | 1.64 µM
O=C(O)CCCCC(CCSCc1ccccc1)SCc1ccccc1 (stereo not drawn) | > 73.4 µM

Query block: Consider the compound O=C(Nc1ccc(N2CCNCC2)cc1)c1[nH]ncc1Nc1cc(Oc2ccccc2)ncn1 and give its measured GI50.
Result block: 2.07 µM

Query block: # GI50 lookup, item O=C(NCCOCCOCCNc1cccc2c1C(=O)N(C1CCCNC1=O)C2=O)c1cc2c(o1)C(=O)c1ccccc1C2=O (stereo not drawn)
Result block: 3.39 µM

Query block: Data request, read-out GI50, for O=C1c2cccc(NCCN=Cc3cc(O)ccc3O)c2C(=O)c2c(NCCN=Cc3cc(O)ccc3O)cccc21
Result block: 2.21 µM

Query block: Suppose we examine the compound N#C/C(=C1C=C/C(=N/O)C(Br)=C/1)c1ccccc1 ; what GI50 value has been reported?
Result block: 5.02 µM

Query block: Endpoint output: GI50 of CCCCC/C(C=C(C#N)C#N)=C/c1ccccc1 . Value?
Result block: 6.54 µM

Query block: Name the reported GI50 value associated with the compound O=C1/C(=C/c2ccc(Cl)cc2Cl)N=C(c2ccccc2)N1Cc1ccco1
Result block: 22.1 µM

Query block: Suppose we examine the compound Cc1nn(CN2CCN(C)CC2)c(=S)n1/N=C/c1cccc2ccccc12 ; what GI50 value has been reported?
Result block: 20.5 µM

Query block: Need GI50, item COc1ccc(C2=NN(C(=O)c3cc(OC)c(OC)c(OC)c3)C(c3ccc(C#N)cc3)C2)cc1OC (stereo not drawn)
Result block: 3.65 µM

Query block: Please give the measured GI50 for this compound: O=C(c1ccco1)c1nc2ccc(C(F)(F)F)cc2[n+]([O-])c1C(F)(F)F
Result block: 28.8 µM

Query block: What value of GI50 has been reported for the following compound? COc1cc(/C=C/c2cc(/C=C/c3ccc(O)c(OC)c3)n(-c3ccccc3)n2)ccc1O
Result block: 0.563 µM

###

- Test system: HOP-62 NSCLC
- Test Name: NCI tumour cell line growth inhibition, 48 h
Property Label: TGI (µM)
Give your result in µM as a bare value.

Known results for compounds:
COc1ccc(/C(=C2\O[C@@H]([C@H]3COC(C)(C)O3)[C@H]3OC(C)(C)O[C@@H]23)c2cc(OC)c(OC)c(OC)c2)cc1O | 25.5
O=C1c2cccc(NCCN=Cc3cc(O)ccc3O)c2C(=O)c2c(NCCN=Cc3cc(O)ccc3O)cccc21 | 4.06
CSc1nc(Cl)c2c(n1)Sc1nc3cc4c(cc3n1C2O)OCCO4 (stereo not given) | 23
CN(C)CCC(=O)N1C/C(=C/c2ccccc2)C(=O)/C(=C\c2ccccc2)C1 | 16

Here is another compound to look at.
Query block: Which TGI is reported for this compound? O=C1C(Cl)=C(N2CCN(C3=C(Cl)C(=O)c4ccccc4C3=O)CC2)C(=O)c2ccccc21
Result block: 25.5

###

- Test system: HT29 colon
- Test Name: NCI tumour cell line growth inhibition, 48 h
TGI of 40 µM or higher: criterion met. Under 40 µM: criterion not met.

Solved cases (10 shown):
Cc1cc(I)cc(CNCCCN2CCSCC2)c1O | criterion not met
N#C/C(=C/c1ccsc1)C(=O)c1ccccc1 | criterion met
CNC(=O)OCc1c(COC(=O)NC)c(-c2ccc(Cl)c(Cl)c2)n2c1SCC2 | criterion not met
CC1=C(C(=O)Nc2ccc([N+](=O)[O-])cc2)C(c2ccc(N(C)C)cc2)C(C(=O)Nc2ccc([N+](=O)[O-])cc2)=C(C)N1 | criterion met
Cc1ccc(-c2c3c([nH]c(=O)c2C#N)-c2cc(F)ccc2OC3)cc1 | criterion met
C[C@]12CC[C@@H]3c4ccc(O)cc4CC[C@H]3[C@@H]1C/C(=C\c1ccncc1)C2=O | criterion met
Nc1cc(CO)cc(Nc2nc3ccc(Cl)cc3c3[nH]c4ccccc4c23)c1 | criterion not met
O=C(c1ccco1)c1nc2ccc(C(F)(F)F)cc2[n+]([O-])c1C(F)(F)F | criterion met
CCCc1cc(=O)c2c(C)c3[nH]c4ccc(Cl)cc4c3c(C)c2[nH]1 | criterion not met
COC(=O)C(CCC#N)(CCC#N)C(=O)OC | criterion met

Query block: Test whether the molecule CC1=C2C(=O)NN=C2CCN1c1ccc(Br)cc1 records TGI of 40 µM or higher.
Result block: criterion met

Query block: Could you tell me if the measured TGI of Cc1nc(-c2ccc([N+](=O)[O-])cc2)cn2c1nc1ccccc12 reaches 40 µM or more?
Result block: criterion met

Query block: Please indicate if the recorded TGI for COC(=O)CC(C(C(=O)OC)C(=O)OC)N1C(=O)OCC1c1ccccc1 (stereo not given) meets or exceeds 40 µM.
Result block: criterion met

Query block: Hello, I need to know if CCOC(=O)CNC(=O)C(CSCc1ccc(Br)cc1)NC(=O)CCC(N)C(=O)OCC (stereo not given) has measured TGI not below 40 µM. Thanks!
Result block: criterion met

Query block: Assess whether reported TGI for O=C(O)CN(CCNC(=O)OCC1c2ccccc2-c2ccccc21)CCNC(=O)OCC1c2ccccc2-c2ccccc21 sits at 40 µM or higher.
Result block: criterion not met

###

- System: SN12C renal
- Test Name: NCI tumour cell line growth inhibition, 48 h
Examples of molecules with documented TGI follow.

Answered examples (6):
O=C(CCCCCCCCC(=O)NN1C(=O)/C(=C\c2ccc(O)c(O)c2)SC1c1ccc(Cl)cc1)NN1C(=O)/C(=C\c2ccc(O)c(O)c2)SC1c1ccc(Cl)cc1 (stereo not given) | > 100 µM
CC1(C)CC(/C=C2/OC(=O)c3ccccc32)=C(C#N)C(=O)O1 | > 100 µM
O=C(O)c1cc2c(cc1CC(Cc1ccc3c(c1)CCC3)C(=O)O)CCC2 (stereo not given) | > 100 µM
CCc1c(Oc2ccc(C(C)=O)cc2)c2ccccc2[nH]c1=O | 61.8 µM
CC(C)Sc1nc(C#N)cc2c1CCCC2 | > 100 µM
N#CC1(Cc2ccc(N)cc2)c2ccccc2C=CN1C(=O)c1ccccc1 (stereo not given) | > 100 µM

Turning now to a further record.
Query block: Name the reported TGI value associated with the molecule OCCCCCNc1c2ccccc2nc2ccccc12
Result block: 9.34 µM

###

- Test system: CAKI-1 renal
- Test Name: NCI tumour cell line growth inhibition, 48 h
Property Label: TGI

CC1(C)OCC(COC(=O)C=[N+]=[N-])O1 (stereo not drawn) | > 100 µM
Nc1ccn(C2O[C@H](CO)[C@@H](O)[C@@H]2O)c(=O)n1 (stereo partly drawn) | > 100 µM

Query block: I would be grateful if you could share the reported TGI for CCOC(=O)NC(=O)c1cn(C2OC(COC(=O)CCCCCCCCC(=O)OCC3OC(n4cc(C(=O)NC(=O)OCC)c(=O)[nH]c4=O)C(O)C3O)C(O)C2O)c(=O)[nH]c1=O (stereo not drawn) .
Result block: > 100 µM

###

- System: OVCAR-4 ovarian
- Test Name: NCI tumour cell line growth inhibition, 48 h
Property Label: TGI

Consider the reported TGI for these compounds:
C=C1CC(COc2cc(=O)oc3ccccc23)(c2ccccc2)OC1=O (configuration not stated) | 4.64 µM
COc1ccc(N2C(=O)C3c4[nH]c5ccc(OCc6ccccc6)cc5c4C4CCC(C(C)(C)C)CC4C3C2=O)cc1 (configuration not stated) | 59.4 µM
NCC(=O)NS(=O)(=O)OC[C@H]1O[C@@H](n2cnc3c(N)ncnc32)[C@H](O)[C@@H]1O | 2.45 µM
CCCCN1C(=O)CC2[C@@H]3CCc4cc(OC(C)=O)ccc4C3CC[C@]2(C)C1=O (some centres not stated) | > 10 µM
COc1ccc2c(c1)c(-c1nc(-c3cn(C)c4ncccc34)cs1)cn2CCCN1CCCCC1 | 4.64 µM
COc1ccc(OC)c(NC(=O)C(=O)C(C(C)=O)c2nc3ccc(Cl)cc3[nH]c2=O)c1 (configuration not stated) | > 50 µM

In the following, a different compound is considered.
Query block: Please give the measured TGI for this compound: O=C(NNC(=S)Nc1ccc(Cl)cc1)c1cc(-c2ccccc2)nc2ccccc12
Result block: 24.3 µM

###

- Test system: IGROV1 ovarian
- Test Name: NCI tumour cell line growth inhibition, 48 h
Recorded TGI values for a group of compounds are listed next.

Cc1cc(N(CCC#N)CCC#N)ccc1/C=N/NC(=O)c1cc(Cl)ccc1O | > 100 µM

Query block: Give the reported TGI for CC(C)OP(=O)(OC(C)C)c1c(Nc2ccccc2)n[nH]c1N (system: IGROV1 ovarian).
Result block: > 100 µM

Query block: Hello, I am looking for reported TGI with IGROV1 ovarian for OC1C2[C@@H](O)CCCN2C[C@@H](O)[C@H]1O (stereo not given in full) . Could you help?
Result block: > 100 µM

Query block: # value lookup — system IGROV1 ovarian, readout TGI, item O=c1oc2ccc(F)cc2c(=O)n1-c1ccc(F)cc1F
Result block: > 100 µM

Query block: Kindly state the measured TGI obtained for CN(C)CCCOc1nc2c(c(=O)n(C)c(=O)n2C)n1C (tested in a mixture with another compound) with IGROV1 ovarian.
Result block: > 100 µM

Query block: # query: TGI | item COCCOCOc1ccc(OCc2ccccc2)cc1 | system: IGROV1 ovarian
Result block: > 100 µM

Query block: # get_value(readout= TGI, system= IGROV1 ovarian) for O=C(CCCCCCCCC(=O)NN1C(=O)/C(=C\c2ccc(O)c(O)c2)SC1c1ccc(Cl)cc1)NN1C(=O)/C(=C\c2ccc(O)c(O)c2)SC1c1ccc(Cl)cc1 (stereo not given)
Result block: > 29.5 µM

Query block: Notebook: pull reported TGI for IGROV1 ovarian, entry N#CC(C(=N/O)/C(=N/O)C(C#N)c1ccc(Cl)cc1)c1ccc(Cl)cc1 (stereo not given)
Result block: > 100 µM

Query block: // fetch IGROV1 ovarian TGI for COc1ccccc1Nc1nc(N)nc(N)c1N=O
Result block: > 100 µM

Query block: Under IGROV1 ovarian: TGI value of CCOc1ccc2c(c1)[n+]([O-])c(S(=O)(=O)c1ccc(C)cc1)c(N)[n+]2[O-] ?
Result block: > 100 µM

Query block: Reported TGI for IGROV1 ovarian, given COc1cc(C2c3cc4c(cc3C(NCC(O)CO)C3COC(=O)[C@H]23)OCO4)cc(OC)c1OC (stereo not given in full) ?
Result block: > 100 µM

Query block: Which TGI is reported with IGROV1 ovarian for this entry: COc1ccc(N2C(=O)C3c4[nH]c5ccc(OCc6ccccc6)cc5c4C4CCC(C(C)(C)C)CC4C3C2=O)cc1 (stereo not given) ?
Result block: > 100 µM

Query block: Request body: readout TGI, system IGROV1 ovarian, query Cc1ccc([C@@H]2[C@@H](C(=O)c3ccccn3)[C@H](c3ccc(C)cc3)C[C@](O)(c3ccccn3)[C@H]2C(=O)c2ccccn2)cc1 . Return the value.
Result block: > 100 µM

Query block: Param readout = TGI; param system = IGROV1 ovarian; param query = Cc1ccc2c(c1)C(=O)/C(=C/c1ncc([N+](=O)[O-])n1C)O2 ; response: value
Result block: > 23.7 µM

Query block: Item: CCCCCCCCCCCCCCCCCCNc1ccn(C2OC(COP(=O)(O)OCC3OC(n4ccc(NC(=O)CCCCCCCCCCCCCCCCC)nc4=O)C(OC(C)=O)C3OC(C)=O)C(OC(C)=O)C2OC(C)=O)c(=O)n1 (stereo not given) Test system: IGROV1 ovarian Read-out: TGI Value: ?
Result block: > 100 µM

All figures here come from PubChem BioAssay (NCI).
